Molecular target: Corticotropin-releasing factor receptor 2/Corticotropin-releasing factor-binding protein (Homo sapiens, UniProt P24387+Q13324)
Sequence (Q13324 whole entry): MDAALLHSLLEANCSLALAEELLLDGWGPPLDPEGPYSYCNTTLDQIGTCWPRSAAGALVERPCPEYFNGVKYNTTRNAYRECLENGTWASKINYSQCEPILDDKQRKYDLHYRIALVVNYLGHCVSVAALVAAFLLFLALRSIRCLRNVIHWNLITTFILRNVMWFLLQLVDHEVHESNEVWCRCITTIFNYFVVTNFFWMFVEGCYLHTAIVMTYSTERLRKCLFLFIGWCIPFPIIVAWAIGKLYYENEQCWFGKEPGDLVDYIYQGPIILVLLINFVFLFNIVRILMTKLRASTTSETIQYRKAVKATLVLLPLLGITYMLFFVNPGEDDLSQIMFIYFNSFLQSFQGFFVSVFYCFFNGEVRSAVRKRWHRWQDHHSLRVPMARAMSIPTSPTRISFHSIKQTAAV
Sequence (P24387 whole entry): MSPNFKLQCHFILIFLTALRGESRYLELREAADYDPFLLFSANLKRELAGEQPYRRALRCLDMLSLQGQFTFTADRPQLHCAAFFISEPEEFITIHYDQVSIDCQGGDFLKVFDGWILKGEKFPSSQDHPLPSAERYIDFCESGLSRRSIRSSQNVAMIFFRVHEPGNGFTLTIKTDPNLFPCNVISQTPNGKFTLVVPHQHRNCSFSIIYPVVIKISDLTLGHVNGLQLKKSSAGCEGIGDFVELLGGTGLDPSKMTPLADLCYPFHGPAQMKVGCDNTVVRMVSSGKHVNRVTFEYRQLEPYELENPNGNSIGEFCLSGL
Test: Dose Response confirmation of uHTS hits for small molecule antagonists of the CRF-binding protein and CRF-R2 receptor complex.
Type: functional
Details: read-out: IC50_Mean
The source made the active and inactive calls.
Pick one and only one: class 1 (active), class 0 (inactive)

Please review the entries below; each comes with its answer.
compound=O=C(CCn1nc(-c2ccccc2)ccc1=O)N1CCOCC1 cat="class 0"
compound="CC1C(=O)C(C)C(c2cc(Br)ccc2O)NC1c1cc(Br)ccc1O (stereo unspecified)" cat="class 0"
compound=Cc1ccc(-n2nnnc2SCc2nnc(-c3ccccc3Br)o2)c(C)c1 cat="class 1"

(Q) Look up the recorded call for O=C1CCc2nc3ccccc3c(=O)n2N1 in this test.
(A) class 0

(Q) Look up the recorded call for COc1ccc([N+](=O)[O-])cc1N(CC(O)Cn1nnc2ccccc21)S(=O)(=O)c1ccc(C)cc1 (stereo unspecified) in this test.
(A) class 1

(Q) Look up the recorded call for CCO/C(O)=C1/C(C)=NC(SCC(=O)OC)=C(C#N)C1c1ccc(C(=O)OC)cc1 (stereo unspecified) in this test.
(A) class 1

(Q) Look up the recorded call for Cc1ccc(S(=O)(=O)Nc2cc(O)nc(SCC(=O)Nc3cccc(C(F)(F)F)c3)n2)cc1 in this test.
(A) class 0

(Q) Look up the recorded call for CCOC(=O)N1CCN(C(=O)CSc2nnc(CNC(=O)c3ccccc3F)o2)CC1 in this test.
(A) class 0

(Q) Look up the recorded call for COc1ccc(C(=O)ON=C(N)Cc2ccc(Cl)c(Cl)c2)cc1OC in this test.
(A) class 1

(Q) Look up the recorded call for CCNc1nc(NC(C)CC)nc(Oc2ccc(OCC)nn2)n1 (stereo unspecified) in this test.
(A) class 0

(Q) Look up the recorded call for Cc1cccc([N+]2=C3CCCCN3C(O)(c3cccs3)C2)c1 (stereo unspecified) in this test.
(A) class 0

---

Assay: viability of HCT116 lacking mutant beta-catenin – cell-based, human colon tumor, dose response (AID 1045);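 also: HCT116 colon tumor cells with beta catenin knocked out; cells exposed to compound for 60 hours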
Type: functional
Calls of active or inactive are those of the source.
metric: EC50

substancesmiles=CCOC(=O)c1ccc(-c2ccc(/C=N/NC(=O)CN(c3ccccc3Br)S(C)(=O)=O)o2)cc1 metric=EC50 measured="22.5 µM (active)"
substancesmiles=Cc1ccc(Cl)cc1N1CCN(C(=O)c2cn(C)c(=O)c3c2c2ccccc2n3C)CC1 metric=EC50 measured="4.17 µM (active)"
substancesmiles=CC1=C/C(=N\OS(=O)(=O)c2ccccc2)C(C)=CC1=O metric=EC50 measured="16.4 µM (active)"

Here is another molecule to look at.
(Q) Please supply the value of reported EC50 for the item COc1ccc(Cn2c(SCc3ccccc3C)nc3cc(OC)c(OC)cc3c2=N)cc1
(A) 3.81 µM (active)

---

IC50: recorded values
Target: Protein skinhead-1 (Caenorhabditis elegans)
Sequence (P34707 whole entry): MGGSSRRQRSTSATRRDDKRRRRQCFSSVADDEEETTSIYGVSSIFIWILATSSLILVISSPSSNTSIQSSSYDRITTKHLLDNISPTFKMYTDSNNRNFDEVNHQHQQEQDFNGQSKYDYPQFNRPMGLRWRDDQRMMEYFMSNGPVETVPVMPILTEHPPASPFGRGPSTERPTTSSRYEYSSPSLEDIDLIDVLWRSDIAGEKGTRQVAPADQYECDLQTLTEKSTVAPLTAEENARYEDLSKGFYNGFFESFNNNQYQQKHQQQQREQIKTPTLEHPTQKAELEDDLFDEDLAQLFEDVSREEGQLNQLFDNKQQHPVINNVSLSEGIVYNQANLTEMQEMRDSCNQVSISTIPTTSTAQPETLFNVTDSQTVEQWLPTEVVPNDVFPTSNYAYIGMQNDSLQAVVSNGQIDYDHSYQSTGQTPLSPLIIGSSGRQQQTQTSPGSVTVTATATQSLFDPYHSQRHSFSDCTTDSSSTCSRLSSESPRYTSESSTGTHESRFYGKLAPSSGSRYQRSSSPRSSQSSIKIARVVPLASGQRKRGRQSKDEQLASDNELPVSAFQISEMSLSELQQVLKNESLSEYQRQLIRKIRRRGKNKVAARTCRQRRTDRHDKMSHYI
Format: functional
Calls of active or inactive are those of the source.

Answered examples (4):
compound=c1cc2c(nn1)CCc1nonc1-2 measured="> 100 µM (inactive)"
compound="O=C(NCCN1C(=O)C2C3C=CC(C3)C2C1=O)Nc1ccccc1O (stereo not given)" measured="> 100 µM (inactive)"
compound="CC1CN(C(=O)c2cccs2)CCN1C(=O)c1cccs1 (stereo not given)" measured="> 100 µM (inactive)"
compound=CN1CCN(c2ccc(NC(=O)c3ccc(Oc4ccccc4)cc3)cc2)CC1 measured="23.6 µM (active)"

Here is another compound to look at.
(Q) Please supply the value of reported IC50 for the item O=C(NCCO)c1cccc(-c2ccc3nncn3c2)c1
(A) > 100 µM (inactive)
